Test: Drug uptake in C57BL/6J mouse liver at 3 mg/kg, po by LC-MS/MS analysis
Format: ADME, organism-based
Settings: in vivo, read-out: Drug uptake
readout_kind: concentration (µM)
# value in µM; strip the unit string

Let me know recorded concentration for CC(=O)N/C(N)=N/C(=N\S(=O)(=O)c1ccc(C(F)(F)F)cc1)N1C[C@H](c2ccccc2)C(c2ccc(Cl)cc2)=N1 , thanks.
14

* * *

Test: Drug uptake in C57BL/6J mouse liver at 10 mg/kg, po measured after 1 hr by LC-MS/MS analysis
Type: ADME, organism-based
Conditions: read-out: Drug uptake
readout_kind: concentration at 1 h (ng/g)
# value in ng/g; strip the unit string

Let me know recorded concentration at 1 h for CC(=O)N/C(N)=N/C(=N/S(=O)(=O)c1ccc2ccccc2c1)N1C[C@H](c2ccccc2)C(c2ccc(Cl)cc2)=N1 , thanks.
1640

Let me know recorded concentration at 1 h for CC(=O)N/C(N)=N/C(=N/S(=O)(=O)c1ccc(I)cc1)N1C[C@H](c2ccccc2)C(c2ccc(Cl)cc2)=N1 , thanks.
26800

Let me know recorded concentration at 1 h for N/C(=N\C(=N\S(=O)(=O)c1ccc(Cl)cc1)N1CC(c2ccccc2)C(c2ccc(Cl)cc2)=N1)n1cccn1 (stereo unspecified) , thanks.
34000

Let me know recorded concentration at 1 h for CC(=O)N/C(N)=N/C(=N/S(=O)(=O)c1ccc(Cl)cc1)N1C[C@H](c2ccccc2)C(c2ccc(Cl)cc2)=N1 , thanks.
46700

Let me know recorded concentration at 1 h for CC(C)(C)OC(=O)N/C(N)=N/C(=N/S(=O)(=O)c1ccc(Cl)cc1)N1CC(c2ccccc2)C(c2ccc(Cl)cc2)=N1 (stereo unspecified) , thanks.
16600

Let me know recorded concentration at 1 h for CON(C)/C(N)=N/C(=N/S(=O)(=O)c1ccc(Cl)cc1)N1CC(c2ccccc2)C(c2ccc(Cl)cc2)=N1 (stereo unspecified) , thanks.
4970

* * *

Assay: Cmax in C57BL/6J mouse serum at 10 mg/kg, po by LC-MS/MS analysis
Format: ADME, organism-based
Set-up: dose 10 mg/kg, route po
What Cmax was measured for each of the following?
# value in µM; strip the unit string

Let me know recorded Cmax for CC(=O)N/C(N)=N/C(=N/S(=O)(=O)c1ccc(I)cc1)N1C[C@H](c2ccccc2)C(c2ccc(Cl)cc2)=N1 , thanks.
4

Let me know recorded Cmax for CC(=O)N/C(N)=N/C(=N/S(=O)(=O)c1ccc(Cl)cc1)N1C[C@H](c2ccccc2)C(c2ccc(Cl)cc2)=N1 , thanks.
4

* * *

Target: Cannabinoid receptor 1 (Mus musculus, UniProt P47746)
Sequence (P47746 whole entry): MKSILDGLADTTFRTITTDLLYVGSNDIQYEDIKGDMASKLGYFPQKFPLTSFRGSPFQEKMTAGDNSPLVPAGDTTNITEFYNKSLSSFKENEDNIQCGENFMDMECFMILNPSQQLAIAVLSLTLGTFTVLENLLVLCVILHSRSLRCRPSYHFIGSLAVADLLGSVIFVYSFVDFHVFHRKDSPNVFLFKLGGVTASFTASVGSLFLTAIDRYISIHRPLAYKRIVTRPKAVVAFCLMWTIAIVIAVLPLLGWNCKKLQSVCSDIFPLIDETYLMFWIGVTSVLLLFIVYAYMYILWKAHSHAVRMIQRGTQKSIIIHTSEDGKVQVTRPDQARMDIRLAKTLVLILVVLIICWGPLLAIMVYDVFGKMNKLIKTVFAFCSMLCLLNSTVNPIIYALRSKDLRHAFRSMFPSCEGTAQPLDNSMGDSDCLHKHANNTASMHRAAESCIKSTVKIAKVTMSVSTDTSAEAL
Assay: Displacement of [3H][…] from CB1 receptor in mouse brain plasma membrane by radioligand displacement analysis
What Ki was measured for each of the following?
A bare number is not enough; add the unit after it.

Let me know recorded Ki for CC(=O)N/C(N)=N/C(=N/S(=O)(=O)c1ccc(C#N)cc1)N1CC(c2ccccc2)C(c2ccc(Cl)cc2)=N1 (configuration not stated) , thanks.
0.4 nM

Let me know recorded Ki for CC(=O)N/C(N)=N/C(=N/S(=O)(=O)c1ccc(I)cc1)N1C[C@H](c2ccccc2)C(c2ccc(Cl)cc2)=N1 , thanks.
0.85 nM

Let me know recorded Ki for COc1ccc(S(=O)(=O)/N=C(/N=C(\N)NC(C)=O)N2CC(c3ccccc3)C(c3ccc(Cl)cc3)=N2)cc1 (configuration not stated) , thanks.
13 nM

Let me know recorded Ki for N/C(=N\C(=N\S(=O)(=O)c1ccc(I)cc1)N1CC(c2ccccc2)C(c2ccc(Cl)cc2)=N1)NC(=O)c1ccccc1 (configuration not stated) , thanks.
5.5 nM

Let me know recorded Ki for CC(=O)N/C(N)=N/C(=N/S(=O)(=O)c1ccc(F)cc1)N1CC(c2ccccc2)C(c2ccc(Cl)cc2)=N1 (configuration not stated) , thanks.
2.3 nM

Let me know recorded Ki for NC(N)=N/C(=N/S(=O)(=O)c1ccc(Cl)cc1)N1CC(c2ccccc2)C(c2ccc(Cl)cc2)=N1 (configuration not stated) , thanks.
415 nM

Let me know recorded Ki for CC(=O)N/C(N)=N/C(=N/S(=O)(=O)c1ccc2ccccc2c1)N1C[C@@H](c2ccccc2)C(c2ccc(Cl)cc2)=N1 , thanks.
78 nM

* * *

What Activity was measured for each of the following?
Target: AMP-activated protein kinase (AMPK) alpha-1/beta-1/gamma-1 (Homo sapiens) (UniProt P54619+Q9Y478+Q13131)
Sequence (P54619 whole entry): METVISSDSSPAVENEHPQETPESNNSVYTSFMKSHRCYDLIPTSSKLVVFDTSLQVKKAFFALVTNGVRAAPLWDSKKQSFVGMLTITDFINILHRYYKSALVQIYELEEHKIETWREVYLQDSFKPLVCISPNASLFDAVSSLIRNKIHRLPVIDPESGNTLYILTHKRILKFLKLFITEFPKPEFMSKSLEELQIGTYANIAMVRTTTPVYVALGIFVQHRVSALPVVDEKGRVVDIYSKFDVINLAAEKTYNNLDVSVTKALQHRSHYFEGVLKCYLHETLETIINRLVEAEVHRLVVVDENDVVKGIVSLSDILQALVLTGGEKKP
Sequence (Q13131 whole entry partner): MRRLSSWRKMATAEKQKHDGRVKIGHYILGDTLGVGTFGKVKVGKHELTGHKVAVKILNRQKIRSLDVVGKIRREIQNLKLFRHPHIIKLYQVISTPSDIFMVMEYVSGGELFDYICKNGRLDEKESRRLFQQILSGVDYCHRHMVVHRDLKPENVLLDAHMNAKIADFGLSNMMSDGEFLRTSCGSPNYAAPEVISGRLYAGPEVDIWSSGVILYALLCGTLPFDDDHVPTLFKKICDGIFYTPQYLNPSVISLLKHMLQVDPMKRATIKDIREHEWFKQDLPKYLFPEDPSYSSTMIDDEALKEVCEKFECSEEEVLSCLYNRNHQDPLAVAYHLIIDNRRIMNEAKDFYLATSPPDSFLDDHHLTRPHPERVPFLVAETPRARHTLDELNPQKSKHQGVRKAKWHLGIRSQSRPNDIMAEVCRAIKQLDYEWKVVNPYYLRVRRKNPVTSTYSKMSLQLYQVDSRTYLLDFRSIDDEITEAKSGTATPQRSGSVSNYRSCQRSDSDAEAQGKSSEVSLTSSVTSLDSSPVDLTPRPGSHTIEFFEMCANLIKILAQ
Sequence (Q9Y478 2-270 partner limits assumed): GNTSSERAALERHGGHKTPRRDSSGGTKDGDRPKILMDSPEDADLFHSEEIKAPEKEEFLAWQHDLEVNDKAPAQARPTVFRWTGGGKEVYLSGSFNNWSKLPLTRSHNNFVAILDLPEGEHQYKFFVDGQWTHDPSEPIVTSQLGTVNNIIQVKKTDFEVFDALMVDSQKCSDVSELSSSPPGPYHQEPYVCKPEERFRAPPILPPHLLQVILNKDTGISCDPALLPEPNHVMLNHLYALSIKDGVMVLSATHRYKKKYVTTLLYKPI
Assay: Activation of recombinant AMPK alpha1/beta1/gamma1 (unknown origin) at 10 uM relative to control
Assay type: protein-complex assay
Conditions: filed as activator
# value in %; strip the unit string

Let me know recorded Activity for CC(=O)N/C(N)=N/C(=N/S(=O)(=O)c1ccc(I)cc1)N1C[C@H](c2ccccc2)C(c2ccc(Cl)cc2)=N1 , thanks.
130

Let me know recorded Activity for C=CCN(CC=C)/C(N)=N/C(=N/S(=O)(=O)c1ccc(Cl)cc1)N1CC(c2ccccc2)C(c2ccc(Cl)cc2)=N1 (centres undefined) , thanks.
157

Let me know recorded Activity for CC(C)(C)N/C(N)=N/C(=N/S(=O)(=O)c1ccc(Cl)cc1)N1CC(c2ccccc2)C(c2ccc(Cl)cc2)=N1 (centres undefined) , thanks.
126

Let me know recorded Activity for CC(=O)N/C(N)=N/C(=N/S(=O)(=O)N1CCC(C(F)(F)F)CC1)N1C[C@@H](c2ccccc2)C(c2ccc(Cl)cc2)=N1 , thanks.
114

Let me know recorded Activity for CC(C)(N/C(N)=N/C(=N/S(=O)(=O)c1ccc(Cl)cc1)N1CC(c2ccccc2)C(c2ccc(Cl)cc2)=N1)c1ccccc1 (centres undefined) , thanks.
100

Let me know recorded Activity for N/C(=N\C(=N\S(=O)(=O)c1ccc(Cl)cc1)N1CC(c2ccccc2)C(c2ccc(Cl)cc2)=N1)NCCc1ccccc1 (centres undefined) , thanks.
136

Let me know recorded Activity for COCCN(CCOC)/C(N)=N/C(=N/S(=O)(=O)c1ccc(Cl)cc1)N1CC(c2ccccc2)C(c2ccc(Cl)cc2)=N1 (centres undefined) , thanks.
155

Let me know recorded Activity for CC(=O)N/C(N)=N/C(=N/S(=O)(=O)c1ccc(Cl)cc1)N1C[C@@H](c2ccccc2)C(c2ccc(Cl)cc2)=N1 , thanks.
130

Let me know recorded Activity for N/C(=N\C(=N\S(=O)(=O)c1ccc(Cl)cc1)N1CC(c2ccccc2)C(c2ccc(Cl)cc2)=N1)N1CCOCC1 (centres undefined) , thanks.
127

* * *

What log10 Ki was measured for each of the following?
Target: Cannabinoid receptor 1 (Mus musculus, UniProt P47746)
Test: Displacement of [3H][…] from CB1 receptor in mouse brain plasma membrane by radioligand displacement analysis
Give log10 of Ki, with Ki taken in nM.

Let me know recorded log10 Ki for CC(=O)N/C(N)=N/C(=N/S(=O)(=O)c1ccc2ccccc2c1)N1CC(c2ccccc2)C(c2ccc(Cl)cc2)=N1 (stereo unspecified) , thanks.
1.20

Let me know recorded log10 Ki for N/C(=N\C(=N\S(=O)(=O)c1ccc(C(F)(F)F)cc1)N1CC(c2ccccc2)C(c2ccc(Cl)cc2)=N1)NC(=O)c1ccccc1 (stereo unspecified) , thanks.
0.48

Let me know recorded log10 Ki for CC(=O)N/C(N)=N/C(=N/S(=O)(=O)c1ccc(OC(F)(F)F)cc1)N1C[C@H](c2ccccc2)C(c2ccc(Cl)cc2)=N1 , thanks.
0.00

Let me know recorded log10 Ki for CC(=O)N/C(N)=N/C(=N/S(=O)(=O)N1CCOCC1)N1CC(c2ccccc2)C(c2ccc(Cl)cc2)=N1 (stereo unspecified) , thanks.
0.36

Let me know recorded log10 Ki for Cc1ccc(S(=O)(=O)/N=C(/N=C(\N)NC(=O)c2ccccc2)N2CC(c3ccccc3)C(c3ccc(Cl)cc3)=N2)cc1 (stereo unspecified) , thanks.
1.40

Let me know recorded log10 Ki for CCC(=O)N/C(N)=N/C(=N/S(=O)(=O)c1ccc(C(F)(F)F)cc1)N1CC(c2ccccc2)C(c2ccc(Cl)cc2)=N1 (stereo unspecified) , thanks.
0.52

Let me know recorded log10 Ki for CCC(=O)N/C(N)=N/C(=N/S(=O)(=O)c1ccc(Cl)cc1)N1CC(c2ccccc2)C(c2ccc(Cl)cc2)=N1 (stereo unspecified) , thanks.
0.45

Let me know recorded log10 Ki for CC(=O)N/C(N)=N/C(=N/S(=O)(=O)c1ccc(I)cc1)N1CC(c2ccccc2)C(c2ccc(Cl)cc2)=N1 (stereo unspecified) , thanks.
0.51

Let me know recorded log10 Ki for CC(=O)N/C(N)=N/C(=N/S(=O)(=O)c1ccc(C)cc1)N1CC(c2ccccc2)C(c2ccc(Cl)cc2)=N1 (stereo unspecified) , thanks.
0.93

Let me know recorded log10 Ki for CC(=O)N/C(N)=N/C(=N/S(=O)(=O)N1CCC(F)(F)CC1)N1CC(c2ccccc2)C(c2ccc(Cl)cc2)=N1 (stereo unspecified) , thanks.
-0.15

Let me know recorded log10 Ki for CC(=O)N/C(N)=N/C(=N/S(=O)(=O)c1ccc2ccccc2c1)N1C[C@H](c2ccccc2)C(c2ccc(Cl)cc2)=N1 , thanks.
0.51

Let me know recorded log10 Ki for CC(=O)N/C(N)=N/C(=N/S(=O)(=O)N1CCC(C(F)(F)F)CC1)N1C[C@@H](c2ccccc2)C(c2ccc(Cl)cc2)=N1 , thanks.
1.57

Let me know recorded log10 Ki for CC(=O)N/C(N)=N/C(=N/S(=O)(=O)c1ccc(C(C)C)cc1)N1CC(c2ccccc2)C(c2ccc(Cl)cc2)=N1 (stereo unspecified) , thanks.
0.57

Let me know recorded log10 Ki for CC(=O)N/C(N)=N/C(=N/S(=O)(=O)c1ccc(Cl)cc1)N1C[C@H](c2ccccc2)C(c2ccc(Cl)cc2)=N1 , thanks.
-0.09

Let me know recorded log10 Ki for CC(=O)N/C(N)=N/C(=N/S(=O)(=O)N1CCC(C(F)(F)F)CC1)N1CC(c2ccccc2)C(c2ccc(Cl)cc2)=N1 (stereo unspecified) , thanks.
-0.10

Values from ChEMBL document CHEMBL5365437
